subject of test: 5-HT2a (human recombinant receptor, CHO-K1) (Homo sapiens)
Sequence (P28223 whole entry): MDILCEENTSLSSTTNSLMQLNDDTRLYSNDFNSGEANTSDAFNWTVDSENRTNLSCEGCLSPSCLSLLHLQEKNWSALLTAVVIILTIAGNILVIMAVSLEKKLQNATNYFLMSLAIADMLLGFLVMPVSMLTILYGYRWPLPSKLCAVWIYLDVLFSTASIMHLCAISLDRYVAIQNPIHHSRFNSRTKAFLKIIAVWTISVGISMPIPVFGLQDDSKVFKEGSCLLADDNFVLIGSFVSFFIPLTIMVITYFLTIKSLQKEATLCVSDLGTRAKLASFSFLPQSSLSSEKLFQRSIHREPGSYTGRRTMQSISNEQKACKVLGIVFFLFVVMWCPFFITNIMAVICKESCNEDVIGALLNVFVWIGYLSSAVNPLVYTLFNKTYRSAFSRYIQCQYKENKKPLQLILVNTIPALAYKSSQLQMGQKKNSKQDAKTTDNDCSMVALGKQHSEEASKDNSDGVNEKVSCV
test protocol: Radioligand binding assay, 5-HT2a
Hi there, I'd appreciate the recorded pIC50 for every entry that follows.
One number for each entry, as −log10 of the molar value.

// below: answered compounds
C[C@@H](c1ccccc1)n1c(=O)c2c(N3CCN(C)CC3)cc(Cl)cc2n(Cc2ccccc2)c1=O = 6.80
Cc1ccc(Cn2c(=O)c3c(N4CCN(C)CC4)cc(Cl)cc3n(Cc3ccccc3)c2=O)o1 = 6.08
Cc1ccccc1Cn1c(=O)c2c(N3CCN(C)CC3)cc(Cl)cc2n(Cc2ccccc2)c1=O = 6.18
Cc1ccc(Cn2c(=O)c3c(N4CCN(C)CC4)cc(Cl)cc3n(Cc3ccccc3)c2=O)cc1 = 6.13
CN1CCN(c2cc(Cl)cc3c2c(=O)n(Cc2cccc([N+](=O)[O-])c2)c(=O)n3Cc2ccccc2)CC1 = 5.75
C[C@@H](c1ccccc1)n1c(=O)c2c(N3CCNCC3)cc(Cl)cc2n(Cc2ccccc2)c1=O = 6.53
CN1CCN(c2cc(Cl)cc3c2c(=O)n(Cc2ccccc2F)c(=O)n3Cc2ccccc2)CC1 = 6.33

Supply reported pIC50 belonging to this compound: `O=c1c2c(N3CCNCC3)cc(Cl)cc2n(Cc2ccccc2)c(=O)n1CCc1ccccc1`
6.40

Data provenance is patent US20090203708A1.
